Tested on: T47D (PI3Kα-H1047R) cell line
Assay info: HTRF phospho-AKT(S473) cell assay in T47D cells
Format: cell-based, human
Condition label: Homo sapiens; HTRF phospho-AKT(S473), T47D (PI3Kα-H1047R) cells, 2 hours compound incubation
pIC50: −log10 of the molar value.
Give measured pIC50 for each item. Keep answers brief.

**Query** Bench note: what pIC50 did COc1cccc(N2CCN(c3nc4c([C@@H](C)Nc5ccc(Cl)nc5C(=O)NS(C)(=O)=O)cc(C)cc4c(=O)n3C)CC2)n1 show?
**Result** 6.30 to 6.60

**Query** Again, but for Cc1cc([C@@H](C)Nc2ccc(Cl)nc2C(=O)NS(C)(=O)=O)c2nc(N3C[C@@H]4C[C@H]3CN4c3cnc(C)c(F)c3)n(C)c(=O)c2c1
**Result** 6.00 to 6.30

**Query** Again, but for Cc1cc([C@@H](C)Nc2ccc(Cl)nc2C(=O)NS(C)(=O)=O)c2nc(N3Cc4cnc(C)nc4C3)n(C)c(=O)c2c1
**Result** 6.30 to 6.60

**Query** Again, but for Cc1cc([C@@H](C)Nc2ccc(Cl)nc2C(=O)NS(C)(=O)=O)c2nc(N3Cc4cn(-c5ccccn5)nc4C3)n(C)c(=O)c2c1
**Result** 6.30 to 6.60

**Query** Again, but for Cc1cc([C@@H](C)Nc2ccc(Cl)nc2C(=O)NS(C)(=O)=O)c2nc(N3CCn4nccc4C3)n(C)c(=O)c2c1
**Result** 6.30 to 6.60

**Query** Again, but for Cc1cc([C@@H](C)Nc2ccc(Cl)nc2C(=O)NS(C)(=O)=O)c2nc(N3CCC(n4nc(C)cc4F)CC3)n(C)c(=O)c2c1
**Result** 6.30 to 6.60

###

Give measured pIC50 for each item. Keep answers brief.
Test system: SKBR3 (PI3Kα-Wild Type) cell line
Assay info: HTRF phospho-AKT(S473) cell assay in SKBR3 cells
Type: cell-based, human
Condition label: Homo sapiens, SK-BR-3; HTRF phospho-AKT(S473), SKBR3 (PI3Kα-Wild Type) cells, 2 hours compound incubation, PDGF-BB stimulated
pIC50: −log10 of the molar value.

**Query** Bench note: what pIC50 did Cc1ccn([C@H]2[C@@H]3CN(c4nc5c([C@@H](C)Nc6ccc(Cl)nc6C(=O)NS(C)(=O)=O)cc(C)cc5c(=O)n4C)C[C@@H]32)c(=O)c1 [Compound 754] show?
**Result** ≤ 5.30

**Query** Again, but for Cc1cc([C@@H](C)Nc2ccc(Cl)nc2C(=O)NS(C)(=O)=O)c2nc(N3CCC(c4cnn(C)n4)CC3)n(C)c(=O)c2c1 [Compound 489]
**Result** 5.30 to 6.00

**Query** Again, but for Cc1cc([C@@H](C)Nc2ccc(Cl)nc2C(=O)NS(C)(=O)=O)c2nc(N3CCN(c4nc(C(F)F)ncc4F)CC3)n(C)c(=O)c2c1 [Compound 772]
**Result** ≤ 5.30

**Query** Again, but for Cc1cc([C@@H](C)Nc2ccc(Cl)nc2C(=O)NS(C)(=O)=O)c2nc(N3C[C@@H]4[C@H](C3)[C@H]4c3ccn(C4CC4)n3)n(C)c(=O)c2c1 [Compound 475]
**Result** 5.30 to 6.00

**Query** Again, but for Cc1cc([C@@H](C)Nc2ccc(Cl)nc2C(=O)NS(C)(=O)=O)c2nc(N3C[C@H]4C[C@@H]3CN4c3nccnc3C)n(C)c(=O)c2c1 [Compound 624]
**Result** ≤ 5.30

**Query** Again, but for Cc1cc([C@@H](C)Nc2ccc(Cl)nc2C(=O)NS(C)(=O)=O)c2nc(N3CCC(c4nn(C(F)F)cc4F)CC3)n(C)c(=O)c2c1 [Compound 463]
**Result** ≤ 5.30
